Source: the supplement of paper PMC10065799

target: SHP2-C SH2; assay: SH2 binding enrichment of the phosphorylated peptide, bacterial display (enrichment ratio); higher = better substrate or ligand; peptides without Tyr show the background;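 note: peptide library displayed on the E. coli surface as eCPX fusions, selected cells deep-sequenced, score is each peptide's frequency after selection divided by its frequency in the input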
// reported SH2 binding enrichment for each item listed
Metric name: SH2 binding enrichment

INSERT INTO assay_data (sequence, system_name, value_observed) VALUES
  ('FKGKNYKPLDL [RPL35_Y78_K77N_YF]', 'SHP2-C SH2', 0.644),
  ('LITTLYIDFLG [KCNQ1_Y267_G269D]', 'SHP2-C SH2', 0.96),
  ('PSDPSYEDTRE [BMPR1A_Y467_M470T]', 'SHP2-C SH2', 1.52),
  ('FPIDHYLGKEM [G6PD_Y202_R198P_YF]', 'SHP2-C SH2', 0.716),
  ('DKGTLYIAEQI [PLBD1_Y375_V377A]', 'SHP2-C SH2', 0.54),
  ('NARGLYYKLHN [GATA2_Y376_C373R]', 'SHP2-C SH2', 0.866),
  ('IRDENYGEGSS [ACO2_Y665_G661R]', 'SHP2-C SH2', 1.01);
